I'd be grateful if you could share measured Association constant (Ka) for these entries.
Target: Albumin (Homo sapiens, UniProt P02768)
Sequence (P02768 whole entry): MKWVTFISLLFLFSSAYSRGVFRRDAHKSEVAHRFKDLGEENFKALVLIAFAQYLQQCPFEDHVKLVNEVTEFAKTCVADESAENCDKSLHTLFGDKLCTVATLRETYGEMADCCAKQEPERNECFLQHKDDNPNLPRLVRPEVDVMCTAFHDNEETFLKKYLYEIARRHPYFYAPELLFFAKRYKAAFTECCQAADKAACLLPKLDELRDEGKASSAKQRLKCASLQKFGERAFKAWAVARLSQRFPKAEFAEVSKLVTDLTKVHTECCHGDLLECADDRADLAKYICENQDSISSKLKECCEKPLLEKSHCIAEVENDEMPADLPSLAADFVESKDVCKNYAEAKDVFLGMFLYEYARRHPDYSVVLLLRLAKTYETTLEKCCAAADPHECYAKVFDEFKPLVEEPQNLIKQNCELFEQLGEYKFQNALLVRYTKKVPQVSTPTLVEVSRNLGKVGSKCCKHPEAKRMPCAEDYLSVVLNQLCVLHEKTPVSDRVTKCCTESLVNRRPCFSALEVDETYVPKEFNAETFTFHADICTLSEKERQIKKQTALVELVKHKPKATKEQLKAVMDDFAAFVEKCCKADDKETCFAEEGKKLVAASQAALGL
Assay: Binding affinity towards human serum albumin
# output: number + unit

Form field: reported Association constant (Ka) of O=C(O)c1cccc(-c2ccc(Cl)cc2Cl)c1
23900 M⁻¹

And O=C(O)c1ccc(-c2ccccc2)cc1 ?
199000 M⁻¹

Next molecule: C[C@@H](C(=O)NCCN1CCCC1)c1ccc(OS(=O)(=O)C(F)(F)F)cc1
3890 M⁻¹

Queued: CC(C)c1ccc(O)c(C(=O)O)c1
26300 M⁻¹

Would you mind doing C[C@@H](C(=O)NCCCN1CCCC1)c1ccc(OS(=O)(=O)C(F)(F)F)cc1 as well?
2690 M⁻¹

Next entry: CC(C)Cc1ccc([C@@H](C)C(=O)NCCOCCO)cc1
8120 M⁻¹

====

Biological target: Albumin (Homo sapiens, UniProt P02768)
Assay: Binding affinity towards human serum albumin
Exercise: state measured Association constant (Ka) for each of the molecules provided.
Expressed in M⁻¹, but write only the number.

Suppose we examine the molecule O=C(O)c1cccc(-c2cc(Cl)cc(Cl)c2)c1 ; what Association constant (Ka) value has been reported?
5750

// next record COc1ccc2c(c1)CN(c1ccc(C(C)C(=O)O)cc1)C2=O (stereo unspecified)
81200

Similarly, Oc1ccc(-c2ccccc2)cc1 [4-Hydroxybiphenyl] ?
9540

And CC(C)NCC(O)c1ccc(NS(C)(=O)=O)cc1 (racemic) [Sotalol,(-)] ?
354

Input CC(C)Cc1ccc([C@@H](C)C(=O)NS(C)(=O)=O)cc1
1.65e+06

How about this molecule: O=C(O)c1cccc(-c2ccccc2)c1
251000

# iterate: CC(C)Cc1ccc([C@@H](C)C(=O)NCCCN(C)C)cc1
5010

Also NS(=O)(=O)c1cc2c(cc1Cl)NCNS2(=O)=O ?
2290

Repeat with Cc1cc(CC(=O)O)n(C)c1C(=O)c1ccc(Cl)cc1
109000

Can you handle Nc1cccc(-c2cccc(C(=O)O)c2)c1 next?
7760

Moving on to the next molecule: C[C@@H](C(=O)NS(C)(=O)=O)c1ccc(OS(=O)(=O)C(F)(F)F)cc1 [DF-2156A]
831000

====

Target: Albumin (Homo sapiens)
Test: Binding affinity towards human serum albumin
I'd appreciate it if you could supply log10 Association constant (Ka) values for the items below.
# log10 transformed; quantity=Association constant (Ka); unit=M⁻¹

log10 Association constant (Ka) lookup needed for Nc1cccc(-c2ccc(O)c(C(=O)O)c2)c1 , thanks.
3.44

Ok, now O=C(c1ccccc1)c1ccc2n1CCC2C(=O)O (stereo unspecified)
5.32

Then what about the compound CCCNC(=O)NS(=O)(=O)c1ccc(Cl)cc1 ?
4.60

Now consider Nc1ccc(-c2cccc(C(=O)O)c2)cc1 .
3.79

Now consider O=C(O)c1cc(-c2ccccc2)ccc1O [2-Hydroxy-5-phenylbenzoic acid] and answer again.
5.00

Then this compound: C[C@@H](C(N)=O)c1ccc(OS(=O)(=O)C(F)(F)F)cc1
4.28

====

Molecular target: Albumin (Homo sapiens, UniProt P02768)
Experiment: Binding affinity towards human serum albumin
Answer each item with its documented Association constant (Ka).
Number first, unit second: that is the form wanted.

What measured Association constant (Ka) goes with Cc1ccc(C(=O)c2ccc(CC(=O)O)n2C)cc1 ?
416000 M⁻¹

And what about the compound NCc1ccc(-c2ccc(C(=O)O)cc2)cc1 ?
1000 M⁻¹

Now give it for CC(C)Cc1ccc([C@@H](C)C(=O)N[C@H](C)C(=O)O)cc1 too.
39800 M⁻¹

// query: O=C(O)c1cccc(-c2cc(C(F)(F)F)cc(C(F)(F)F)c2)c1
3090 M⁻¹

Please do the same for CC1=C(CC(=O)O)c2cc(F)ccc2/C1=C\c1ccc([S+](C)[O-])cc1 (stereo unspecified) as well.
26300 M⁻¹

Then CC(Cc1ccc([C@@H](C)C(=O)NS(C)(=O)=O)cc1)C(=O)O (stereo partly specified) ?
3890 M⁻¹

Same read-out for CC(C)(C)c1ccc(O)c(C(=O)O)c1 ?
20400 M⁻¹

Can you handle O=C(O)c1cc(Cl)ccc1O [5-Chloro-2-hydroxy-benzoic acid] next?
21300 M⁻¹

Cc1ccc(S(=O)(=O)NC(=O)NN2CCCCCC2)cc1 ?
53700 M⁻¹

Now this one: NCc1cc(-c2ccc(C(=O)O)cc2)ccc1F
1000 M⁻¹

Now the same for CC(C(=O)O)c1ccc(-c2ccccc2)c(F)c1 (racemic)
331000 M⁻¹

Reference source: BindingDB's records for doi:10.1021/jm049227l
